system: HCT116; test: HCT116 growth inhibition assay; format: cell-based; conditions: without formate
assay-endpoint: IC50

Below are worked cases with known answers.
Cc1n[nH]c2c1C(c1cc(C#CC3CN(C(=O)OC(C)C)C3)cc(CO)c1)(C(C)C)C(C#N)=C(N)O2 (stereo not shown) : A″
Cc1n[nH]c2c1C(c1cc(C#C[C@H]3C[C@@H](NCC(=O)N(C)C)C3)cc(CO)c1)(C(C)C)C(C#N)=C(N)O2 (stereo partly shown) : D″
Cc1n[nH]c2c1C(c1cc(C#C[C@H]3C[C@@H](NC(=O)OC(C)(C)C)C3)cc(CO)c1)(C(C)C)C(C#N)=C(N)O2 (stereo partly shown) [KDG-0388] : B″
Cc1n[nH]c2c1C(c1cc(C#CC3CCN(C(=O)OC(C)(C)C)C3)cc(CO)c1)(C(C)C)C(C#N)=C(N)O2 (stereo not shown) : B″
Cc1n[nH]c2c1C(c1cc(C#C[C@H]3C[C@@H](NC(=O)OC(C)(C)C)C3)cc(C(F)(F)F)c1)(C(C)C)C(C#N)=C(N)O2 (stereo partly shown) : B″

Shifting focus to the compound that follows.
Supply IC50 value. Item: Cc1nnc(N[C@H]2CC[C@@H](C#Cc3cc(CO)cc(C4(C(C)C)C(C#N)=C(N)Oc5[nH]nc(C)c54)c3)CC2)o1 (stereo partly shown) C″

These data points were gathered from patent US20230382920A1.
